- Test system: CCRF-CEM leukemia
- EXPERIMENTAL DETAILS: NCI tumour cell line growth inhibition, 48 h
Provide the recorded TGI for the entries that follow.
Numbers only, in µM.

Past entries and their recorded results:
SMILES STR: C/C=C1/CN2CC[C@@H]3c4ccccc4N4[C@H](C(=O)OC)[C@H]1C[C@H]2[C@]34/C=C/C1=COC[C@@H]2[C@H]1C[C@H]1c3c(c4ccccc4n3C)C[C@@H]2N1C
VALUE UNIT: µM
TGI: 9.49
--
SMILES STR: C[C@]1(O)CC(=O)[C@]2(O)C3=C(C=C[C@]2(O)C1)C(=O)c1c(O)cccc1C3=O
VALUE UNIT: µM
TGI: 3.33

Can you give me TGI for all of these, one by one?
1. COc1cccc(NC(=O)c2ccc(C(F)(F)F)nc2Nc2ccc(Cl)cc2C)c1
2. Cc1occc1C(=S)Nc1ccc(Cl)c(C(=O)OCC2CC2)c1
3. COc1cc2c(c(OC)c1OC)C(=O)c1c-2n(CCCN)c(=O)c2cc([N+](=O)[O-])ccc12

34.4
91.5
0.834

* * *

- System: UACC-62 melanoma
- EXPERIMENTAL DETAILS: NCI tumour cell line growth inhibition, 48 h
READOUT KIND: TGI

COMPOUND: N#CC1(C#N)C(c2ccccc2)NC23CCCCC2C1(C#N)C(=O)N3 (stereo not given)
TGI: > 100 µM
//
COMPOUND: CNC1=C(Br)C(=O)C2=C(C1=O)C1C3=C(C(=O)C=CC3=O)C2c2ccccc21 (stereo not given)
TGI: 6.85 µM
//
COMPOUND: COc1ccc2c(CCNS(=O)(=O)c3ccccc3)c(C(C)=O)[nH]c2c1[N+](=O)[O-]
TGI: > 100 µM
//
COMPOUND: CP(=O)(CCSc1ccccc1)c1ccccc1 (stereo not given)
TGI: > 100 µM

Lab note: next compound to report on.
Any idea what TGI was measured for C=C(C)[C@@H]1CC[C@]2(C)[C@H](CC=C3[C@@H]4CC(C)(C)CC[C@]4(C(=O)OC)CC[C@]32C)[C@@]1(C)CC/C(N)=N/O ?
3.11 µM

* * *

Provide the recorded TGI for the entries that follow.
- System: UO-31 renal
- EXPERIMENTAL DETAILS: NCI tumour cell line growth inhibition, 48 h
One number for each entry, in µM.

Past entries and their recorded results:
SMILES STR: [O-]c1c(-c2ccccc2)[se]c(-c2ccccc2)[n+]1-c1ccccc1
TGI [µM]: 9.84
--
SMILES STR: CC(C)C(OC(=O)c1cc(NC(=S)c2ccccc2)ccc1Cl)C(C)C
TGI [µM]: 54.6

Lab note: next compound to report on.
I'm curious: which TGI was measured for C=C(C)[C@@H]1CC[C@]2(C)[C@H](CC=C3[C@@H]4CC(C)(C)CC[C@]4(C(=O)OC)CC[C@]32C)[C@@]1(C)CC/C(N)=N/O tested on UO-31 renal?
2.94

* * *

- System: SK-MEL-28 melanoma
- EXPERIMENTAL DETAILS: NCI tumour cell line growth inhibition, 48 h
READOUT KIND: TGI

Past entries and their recorded results:
MOLECULE: Cc1cc(C)c(S(=O)(=O)Oc2ccccc2[N+](=O)[O-])c(C)c1
STUDY SYSTEM: SK-MEL-28 melanoma
TGI: > 100 µM

MOLECULE: C=C(Cl)C(Br)(CCl)CCC(Cl)C(C)C (centres undefined) (tested in a mixture with another compound)
STUDY SYSTEM: SK-MEL-28 melanoma
TGI: 3.21 µM

MOLECULE: S=C1SC2(CCCCCC2)NC2=C1CCCCC2
STUDY SYSTEM: SK-MEL-28 melanoma
TGI: > 100 µM

MOLECULE: CN(C)CC1CCC(CN(C)C)C1=NO (centres undefined)
STUDY SYSTEM: SK-MEL-28 melanoma
TGI: > 100 µM

MOLECULE: COc1cccc2c1C(=O)c1c(O)c3c(c(O)c1C2=O)C[C@@](O)(C(=O)COC(=O)c1cccnc1)C[C@@H]3OC1CC(N)C(O)C(C)O1 (some centres undefined)
STUDY SYSTEM: SK-MEL-28 melanoma
TGI: 0.689 µM

Can you give me TGI for all of these, one by one?
1. CC(=O)C1C(=O)C(=O)N(c2ccc(Cl)cc2C)C1=O (centres undefined)
2. Cc1c(Cl)c(S(N)(=O)=O)cc(S(N)(=O)=O)c1NC(=O)c1ccc(Cl)cc1
3. CCCCCCCCCCSS(=O)(=O)c1ccc(C)cc1
4. CCCCCCCCCCCCCC/C(=C/OCC[N+](C)(C)C)OC(C)=O (tested in a mixture with another compound)

["> 100 µM", "> 100 µM", "10.2 µM", "20.4 µM"]

* * *

- Test system: M14 melanoma
- EXPERIMENTAL DETAILS: NCI tumour cell line growth inhibition, 48 h
READOUT KIND: TGI

Past entries and their recorded results:
MOLECULE: C#CCCCCC#CC1CCCC1C1=CC(=O)c2ccccc21 (stereo unspecified)
TGI: 17 µM

MOLECULE: C/C(=C\c1ccccc1)C(O)S(=O)(=O)O (stereo unspecified)
TGI: > 100 µM

Can you give me TGI for all of these, one by one?
1. CCOc1ccccc1N=NC1C(=O)N(C(=O)CC(=O)Nc2ccccc2Cl)N=C1C (stereo unspecified)
2. CN(C)CC1CCC(CN(C)C)C1=NO (stereo unspecified)
3. COc1cccc(C(=O)O)c1Cc1cccc2ccccc12
4. CO/N=C(\COc1ccc2c(=O)cc(-c3ccccc3)oc2c1)c1ccc(OC)cc1
5. COc1cc(C(CN)N(C)C)cc(OC)c1OC (stereo unspecified)
6. CC(=O)C1CC2(c3ccccc3)C(=O)c3ccccc3N2O1 (stereo unspecified)

1: > 100 µM; 2: > 100 µM; 3: > 100 µM; 4: > 100 µM; 5: > 100 µM; 6: > 100 µM

* * *

- System: SF-268 CNS
- EXPERIMENTAL DETAILS: NCI tumour cell line growth inhibition, 48 h
Provide the recorded TGI for the entries that follow.

Past entries and their recorded results:
COMPOUND: N#CC1(C#N)C(c2ccccc2)NC23CCCCC2C1(C#N)C(=O)N3 (centres undefined)
STUDY SYSTEM: SF-268 CNS
TGI: > 100 µM
//
COMPOUND: O=S(=O)(O)c1cc(O)c2c(O)c(N=Nc3ccc(/C=C/c4ccc(N=Nc5c(S(=O)(=O)O)cc6cc(S(=O)(=O)O)cc(O)c6c5O)cc4S(=O)(=O)O)c(S(=O)(=O)O)c3)c(S(=O)(=O)O)cc2c1
STUDY SYSTEM: SF-268 CNS
TGI: > 100 µM
//
COMPOUND: COC(=O)c1ccc(/C=N/c2cc(C)nn2-c2ccccc2)cc1
STUDY SYSTEM: SF-268 CNS
TGI: > 100 µM
//
COMPOUND: COc1ccc(OC)c(-c2cn3nc(-c4c[nH]c5ccc(Br)cc45)sc3n2)c1
STUDY SYSTEM: SF-268 CNS
TGI: 7.6 µM
//
COMPOUND: COc1cc2c(C#N)n3c(c2cc1OC)C(=O)C(c1ccccc1)Oc1ccccc1-3 (centres undefined)
STUDY SYSTEM: SF-268 CNS
TGI: > 100 µM

Can you give me TGI for all of these, one by one?
1. CCC(=O)[O-].CCC(=O)[O-].N.N.N.N.[Co+3].[O-][Cl+3]([O-])([O-])[O-]
2. CC(=O)N1C(=O)C(=O)c2cc(Cl)ccc21
3. Cc1ccc(-c2n[nH]c(CC#N)n2)cc1
4. S=c1scc(-c2ccc(Cl)cc2)n1OC1CCCC1

1: > 100 µM; 2: > 100 µM; 3: > 100 µM; 4: > 100 µM

* * *

Provide the recorded TGI for the entries that follow.
- Test system: K-562 leukemia
- EXPERIMENTAL DETAILS: NCI tumour cell line growth inhibition, 48 h

Past entries and their recorded results:
COMPOUND: O=S(O)CCCCSSCCCCS(=O)(O)=S
TGI: > 100 µM

COMPOUND: CC(=O)c1ccc(NCn2nc(-c3ccccc3O)oc2=S)cc1
TGI: > 100 µM

COMPOUND: N#CC(C(=N/NC(N)=S)/C(=N\NC(N)=S)C(C#N)c1ccccc1)c1ccccc1 (configuration not stated)
TGI: > 10 µM

COMPOUND: C/C(CC(=O)Nc1ccc(C)cc1)=N\NC(N)=S
TGI: > 100 µM

COMPOUND: c1ccc(SCCP(CCP(c2ccccc2)c2ccccc2)c2ccccc2)cc1 (configuration not stated)
TGI: > 100 µM

COMPOUND: COc1cc2c(cc1OC)C(C1(O)CCCCC1)NCC2 (configuration not stated)
TGI: > 100 µM

COMPOUND: COc1cccc(N2CCc3c(C)c(C#N)c4nc5ccccc5n4c32)c1
TGI: > 100 µM

COMPOUND: COc1ccc(-n2nc(C)c3c(Nc4ccc(NC(=O)Nc5cc(C(F)(F)F)ccc5F)cc4)ncnc32)cc1
TGI: > 100 µM

COMPOUND: COc1cc(C)c(N(C)C(=O)CN(C)C)cc1Nc1nc(Nc2cccc(F)c2C(N)=O)c2cc[nH]c2n1
TGI: > 25 µM

COMPOUND: Cc1cc(Cl)ccc1N1C(=O)C(=O)C(c2nc3ccccc3s2)/C(=N\NC(=O)c2ccccc2O)C1=O (configuration not stated)
TGI: > 100 µM

Can you give me TGI for all of these, one by one?
1. S=C1SC2(CCCCCC2)NC2=C1CCCCC2
2. CN(C)CCNc1ccc2nnn3c4ccc(Cl)cc4c(=O)c1c23
3. O=C(CN1C(=O)c2ccccc2C1=O)OC1C=CCCC1 (configuration not stated)

1. > 100 µM
2. 22.7 µM
3. > 100 µM

Can you give me TGI for all of these, one by one?
1. Cc1ccccc1N=Nc1ccc(N=Nc2c(O)ccc3cc(S(=O)(=O)O)cc(S(=O)(=O)O)c23)c(C)c1
2. C[n+]1ccccc1/C=C/c1ccc2c(c1)OCO2
3. C1CSCCSS[C@@H]2CCCCC2SC1 (some centres not stated)
4. Cc1nnc2sc(-c3ccc(N)cc3)nn12

["> 100 µM", "> 10 µM", "> 100 µM", "> 100 µM"]

All figures here come from PubChem BioAssay (NCI).
